Entries annotated with measured TGI
system: UACC-62 melanoma; assay: NCI tumour cell line growth inhibition, 48 h

Examples with answers:
CN(C)CCCNc1c(C#N)[n+]([O-])c2cc(Cl)ccc2[n+]1[O-] = 17.4 µM
CN(C)C=[N+]=[N-] = > 100 µM
CC(NCCC(=O)N(CCC(=O)N(CCC(=O)N(CCC(=O)N(CCC(=O)N(CCC(=O)N(CCC(=O)N(CCC(=O)N(CCC(=O)N(CCC(=O)O)[C@H](C)c1ccccc1)[C@H](C)c1ccccc1)[C@H](C)c1ccccc1)[C@H](C)c1ccccc1)[C@H](C)c1ccccc1)[C@H](C)c1ccccc1)[C@H](C)c1ccccc1)[C@H](C)c1ccccc1)[C@H](C)c1ccccc1)c1ccccc1 (some centres undefined) = 2.96 µM
CN(N)/N=N/c1nc[nH]c1[N+](=O)[O-] = > 100 µM
S=C1CSc2c(ccc3ccccc23)N1 = > 100 µM

Moving on to another molecule below.
QUERY: Quick one: TGI of CC(O)c1ccc[n+](Cc2ccccc2)c1 (centres undefined) ?
RESULT: > 400 µM

----------
Attribute: TGI
system: M14 melanoma; test: NCI tumour cell line growth inhibition, 48 h

CCOc1cc2c(cc1O)CC[C@@H]1[C@@H]2CC[C@]2(C)C(N)CC[C@@H]12 (some centres undefined) = 25.2 µM

QUERY: Report TGI for `COc1cc([C@H]2CC(=O)C[C@H](c3cc(OC)c(OC)c(OC)c3)C23C(=O)c2ccccc2C3=O)cc(OC)c1OC` tested on M14 melanoma.
RESULT: > 100 µM

QUERY: Request - read-out TGI | tested on M14 melanoma | compound CCCCCCCCCCCCOC1C(C(COC2OC(C3COC(C)(C)O3)C3OC(C)(C)OC23)NC(=O)NS(=O)(=O)c2ccccc2)OC2OC(C)(C)OC21 (centres undefined)
RESULT: 18.9 µM

QUERY: TGI of `O=P1(c2ccccc2)C(c2ccccc2)=CC=C1c1ccccc1` on M14 melanoma?
RESULT: > 100 µM

QUERY: Form field - read-out: TGI; system: M14 melanoma; submitted item: O=C(O)CCC(NC(=O)c1ccccc1)C(=O)O (centres undefined)
RESULT: > 100 µM

QUERY: Param readout = TGI; param system = M14 melanoma; param query = `Cc1cc(Cc2cc(C)cc(C(C)(C)C)c2O)c(O)c(Cc2cc(C)cc(C(C)(C)C)c2O)c1` ; response: value
RESULT: 7.26 µM

QUERY: Form entry - test system: M14 melanoma; read-out: TGI; compound: `N#Cc1ccc(C(=O)/C=C/c2ccc(O)c(O)c2)cc1`
RESULT: 32.8 µM

QUERY: Request: TGI, test system M14 melanoma, entry C[C@]12CCC(=O)C(O)=C1CC[C@@H]1C2CC[C@]2(C)Nc3c(cnn3-c3ccccc3)CC12 (some centres undefined)
RESULT: > 100 µM

----------
test system: SNB-19 CNS; assay: NCI tumour cell line growth inhibition, 48 h
Entries and their TGI

QUERY: Please report the recorded TGI for `CC1=C(C(=O)N(C(C)C)C(C)C)CC(C(=O)N(C(C)C)C(C)C)=C(C)N1` .
RESULT: > 100 µM

QUERY: What value of measured TGI is listed for `Cc1ccc2nc(-c3ccccc3)c(N=O)n2c1` ?
RESULT: > 100 µM

QUERY: For COc1cc(/C=N/NC(=O)c2cnn3c2NC(c2ccccc2)C3)ccc1Oc1ccccc1 (stereo not given) , what is its reported TGI?
RESULT: 8.31 µM

QUERY: Which TGI value belongs to `CC(=O)OCC(=O)[C@@]12OC(C)(C)O[C@@H]1C[C@H]1[C@@H]3CC=C4C[C@@H](O)CC[C@]4(C)[C@H]3CC[C@@]12C` ?
RESULT: > 100 µM

QUERY: Requested field: TGI. Item: `O=C(O)CCSC(=O)Nc1ccccc1F`
RESULT: > 100 µM

QUERY: Recorded TGI of CCCCCCCCCCCCCCCCOCC(CP(=O)([O-])OCC[n+]1ccccc1)OC (stereo not given) , please.
RESULT: 21.6 µM

QUERY: TGI lookup needed for C/C=C1/CCC2c3[nH]c4ccccc4c3CCN2C1 (stereo not given) , thanks.
RESULT: > 100 µM

QUERY: Any idea what TGI was measured for `C=C1C(=O)O[C@H]2[C@H]1CCC(/C=N/c1ncc(Br)cc1N)=C\CC[C@@]1(C)O[C@@H]21` ?
RESULT: 24.7 µM

QUERY: Look at this compound and give its reported TGI. `CCOC(=O)/C(=C\c1ccc(C#N)cc1)C(C)=O`
RESULT: > 100 µM

QUERY: Fill in the blank: the reported TGI of CC(=O)C(CN(Cc1ccccc1)Cc1ccccc1)C(c1ccccc1)c1c(O)c2ccccc2oc1=O (stereo not given) is ____.
RESULT: > 100 µM
